# target.or.system: CYP2C19 (Homo sapiens)
# Construct: purchased Life Technologies
# Sequence (P33261 whole entry): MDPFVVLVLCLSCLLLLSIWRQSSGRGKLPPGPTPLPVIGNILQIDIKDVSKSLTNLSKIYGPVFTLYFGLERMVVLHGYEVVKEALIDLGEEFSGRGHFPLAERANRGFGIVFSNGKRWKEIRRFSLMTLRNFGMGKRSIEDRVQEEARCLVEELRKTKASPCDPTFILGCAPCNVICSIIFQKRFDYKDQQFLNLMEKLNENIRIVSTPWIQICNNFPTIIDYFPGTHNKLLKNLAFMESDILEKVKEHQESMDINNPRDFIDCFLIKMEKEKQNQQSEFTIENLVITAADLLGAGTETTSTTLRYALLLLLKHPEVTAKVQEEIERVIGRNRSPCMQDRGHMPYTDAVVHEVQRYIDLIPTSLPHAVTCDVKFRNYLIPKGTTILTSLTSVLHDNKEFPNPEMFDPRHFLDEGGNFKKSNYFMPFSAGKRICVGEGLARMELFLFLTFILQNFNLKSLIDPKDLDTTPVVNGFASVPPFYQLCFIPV
# assay.protocol: Cell-free CYP450 inhibition assay, CYP2C19
# Assay type: biochemical
# run.conditions: human, CYP2C19 BACULOSOMES (cell-free recombinant enzyme), cell-free fluorescent probe assay
measurement.name: IC50 at 60 min (µM)
Respond numerically; units are µM and should not be typed.

IC50 at 60 min in this record for "O=C1C[C@@H](c2ccccc2)Oc2cc(O)cc(O)c21" : 4.49

----------
measurement.name: IC50 (µM)
Respond numerically; units are µM and should not be typed.

Entry O=C1C[C@@H](c2ccccc2)Oc2cc(O)cc(O)c21 [pinocembrin] , CYP2C9 (Homo sapiens) data, IC50 value: 345

----------
# target.or.system: CYP2B6 (Homo sapiens, UniProt P20813)
# Sequence (P20813 1-491): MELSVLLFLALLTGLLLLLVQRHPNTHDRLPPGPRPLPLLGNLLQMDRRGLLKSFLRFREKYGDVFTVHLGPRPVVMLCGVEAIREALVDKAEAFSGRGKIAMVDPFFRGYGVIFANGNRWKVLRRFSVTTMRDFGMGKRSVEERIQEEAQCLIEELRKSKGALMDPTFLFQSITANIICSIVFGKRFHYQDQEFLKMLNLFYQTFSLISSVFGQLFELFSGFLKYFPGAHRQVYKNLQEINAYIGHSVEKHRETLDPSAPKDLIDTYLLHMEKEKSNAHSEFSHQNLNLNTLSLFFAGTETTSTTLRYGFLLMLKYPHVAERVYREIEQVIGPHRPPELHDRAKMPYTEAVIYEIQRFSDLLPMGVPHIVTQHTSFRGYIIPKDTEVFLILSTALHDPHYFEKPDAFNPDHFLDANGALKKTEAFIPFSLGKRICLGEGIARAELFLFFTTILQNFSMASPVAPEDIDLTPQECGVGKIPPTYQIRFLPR
measurement.name: IC50 (µM)
Respond numerically; units are µM and should not be typed.

IC50 in this record for "O=C1C[C@@H](c2ccccc2)Oc2cc(O)cc(O)c21" : 44
